Please respond with reported TGI for every item in the list.
- System: 786-0 renal
- PROTOCOL_DESCRIPTION: NCI tumour cell line growth inhibition, 48 h

Data request: Give the reported TGI for this molecule. `CNS(=O)(=O)NN(C)S(=O)(=O)c1ccc(Br)cc1`
Data returned: > 100 µM

Data request: Give the reported TGI for this molecule. COC1=C(C(=O)OC(C)(C)C)[C@]2(C)C(C(=O)OC(C)(C)C)C(OC)=C(C(=O)OC(C)(C)C)[C@]2(C)C1C(=O)OC(C)(C)C (stereo partly specified)
Data returned: > 100 µM

Data request: Give the reported TGI for this molecule. `O=C(/C(Cl)=C/c1ccccc1)c1ccccc1`
Data returned: 3.37 µM

Data request: Give the reported TGI for this molecule. `CCO[C@H]1C[C@@H](c2ccccc2)[C@]2(C)C[C@H](C(=O)OC)ON2O1`
Data returned: > 100 µM

Data request: Give the reported TGI for this molecule. `CN(C)CC#Cc1cccc(C(=O)c2cnn(-c3ccc(F)cc3)c2N)c1`
Data returned: > 25 µM

Data request: Give the reported TGI for this molecule. `CNC(=O)CNC(=O)CCC(=O)N(C)C`
Data returned: > 100 µM

Data request: Give the reported TGI for this molecule. CC(=O)NC1CCC(NC(=O)OC(C)(C)C)C(NC(=O)OC(C)(C)C)C1 (stereo unspecified)
Data returned: > 100 µM

Data request: Give the reported TGI for this molecule. `O=C(c1ccco1)N1CCN(C(=O)c2ccco2)C1=S`
Data returned: 12.8 µM

Data request: Give the reported TGI for this molecule. `CCN(CC)C(=S)N/N=C(\C)c1ccccc1O`
Data returned: > 100 µM

Data request: Give the reported TGI for this molecule. `CSc1cc(Cl)c(C)cc1S(=O)(=O)NC(=O)NNc1ccccn1`
Data returned: > 100 µM

Data request: Give the reported TGI for this molecule. C=CCOc1ccc(C2c3c([nH][nH]c3=O)CC(C)(O)C2C(=O)OC)cc1OC (stereo unspecified)
Data returned: > 100 µM
